Assayed target: GTPase HRas (Homo sapiens) (UniProt P01112)
Sequence (P01112 whole entry, looked up): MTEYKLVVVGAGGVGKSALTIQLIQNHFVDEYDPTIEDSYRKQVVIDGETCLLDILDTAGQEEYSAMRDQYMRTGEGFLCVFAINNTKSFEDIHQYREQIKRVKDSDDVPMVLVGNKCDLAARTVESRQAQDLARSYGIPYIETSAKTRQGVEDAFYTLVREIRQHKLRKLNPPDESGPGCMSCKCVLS
Assay summary: Inhibitory [3H]GDP concentration against cellular p21 Ha-ras
Measure name: K rel

// worked examples, K rel included
{"columns": ["Compound", "K rel"],
 "data": [
  ["Nc1nc2c(ncn2COCCOP(=O)(O)OP(=O)(O)OP(=O)(O)O)c(=O)[nH]1", 0.0012],
  ["Nc1nc(O)c2ncn(C3OC(COP(=O)(O)OP(=O)(O)OP(=O)(O)O)CC3O)c2n1 (stereo not drawn)", 0.85],
  ["O=P(O)(O)OP(=O)(O)OP(=O)(O)OC[C@@H]1OC(n2cnc3c(O)nc(NCCCCc4ccccc4)nc32)[C@@H](O)[C@H]1O (stereo partly drawn)", 1.19]
]}

For the next question, use this compound.
Report K rel for CCCCc1ccc(Nc2nc(O)c3ncn(C4O[C@@H](COP(=O)(O)OP(=O)(O)OP(=O)(O)O)[C@H](O)[C@@H]4O)c3n2)cc1 (stereo partly drawn) please.
3.3

----------
Assayed target: GTPase HRas (Homo sapiens)
Assay summary: Inhibitory [3H]GDP concentration against oncogenic Ha-ras protein (p21 Leu-61)
Measure name: K rel
The answer should be written as a number, with no unit following it.

// worked examples, K rel included
{"columns": ["Molecule", "K rel"],
 "data": [
  ["O=P(O)(O)OP(=O)(O)OP(=O)(O)OC[C@@H]1OC(n2cnc3c(O)nc(Nc4ccc(F)cc4)nc32)[C@@H](O)[C@H]1O (stereo partly drawn)", 2.38],
  ["Nc1nc(O)c2ncn([C@H]3O[C@@H](COP(=O)(O)OP(=O)(O)OP(=O)(O)O)[C@H](O)[C@@H]3O)c2n1", 1.2]
]}

For the next question, use this molecule.
Report K rel for O=P(O)(O)OP(=O)(O)OP(=O)(O)OC[C@@H]1OC(n2cnc3c(O)nc(Br)nc32)[C@@H](O)[C@H]1O (stereo partly drawn) please.
0.05

----------
Here the recorded K rel is given for each entry.
Assayed target: GTPase HRas (Homo sapiens) (UniProt P01112)
Assay summary: Inhibitory [3H]GDP concentration against cellular p21 Ha-ras
The answer should be written as a number, with no unit following it.

{"columns": ["Compound", "Assayed target", "K rel"],
 "data": [
  ["Nc1nc(O)c2ccn(C3O[C@@H](COP(=O)(O)OP(=O)(O)OP(=O)(O)O)[C@H](O)[C@@H]3O)c2n1 (some centres undefined)", "GTPase HRas (Homo sapiens) (UniProt P01112)", 0.08],
  ["Nc1nc2c(ncn2[C@H]2CC[C@@H](COP(=O)(O)OP(=O)(O)OP(=O)(O)O)O2)c(=O)[nH]1", "GTPase HRas (Homo sapiens) (UniProt P01112)", 0.28],
  ["O=P(O)(O)OP(=O)(O)OP(=O)(O)OC[C@@H]1OC(n2cnc3c(O)nc(Nc4ccc(F)cc4)nc32)[C@@H](O)[C@H]1O (some centres undefined)", "GTPase HRas (Homo sapiens) (UniProt P01112)", 1.77]
]}

For the next question, use this compound.
Report K rel for O=P(O)(O)OP(=O)(O)OP(=O)(O)OC[C@@H]1OC(n2cnc3c(O)ncnc32)[C@@H](O)[C@H]1O (some centres undefined) please.
0.11
